Cited source: paper PMC5540273

system: SRC;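 further: kd values determined as follow-up on hits from a single-replicate KINOMEscan panel screen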
RECORDED ENDPOINT: Kd
Answer format: number, then unit.

Prompt: What value of Kd on SRC does Fc1cc(Cl)ccc1Nc1ccnc2cc(-c3ccc(CN4CCCCC4)o3)ccc12 [GW560116] have?
Completion: 4.4 µM

* * *

test system: MYLK2; conditions: concentration: 1 μM, replicates: in singlicate; n = 1
Provide the reported %Inh of each item.
Answers are plain numbers, in %.

Fill in %Inh for each of the 5 compounds listed.
1. O=C(Nc1n[nH]c2cc(-c3cccc(F)c3F)ccc12)C1CC1
2. Nc1nc(-c2nccs2)c(-c2ccnc3ccccc23)s1
3. CN(C)CCN(C)C(=O)c1cc(-c2ccncc2)c(-c2ccc(Cl)c(O)c2)o1.Cl.Cl
4. O=C1NC(=O)C(N2CCc3ccccc32)=C1c1ccccc1Cl
5. Cl.c1ccc(-c2n[nH]cc2-c2ccnc(-c3ccc(CN4CCOCC4)cc3)c2)nc1

Completion:
1: 90.2; 2: 11; 3: 11; 4: 22; 5: 10

Value sought for every listed compound: %Inh.
1. Cl.NC(=O)c1cccc(Nc2nccc(Nc3ccc(Oc4cccc(Cl)c4)c(Cl)c3)n2)c1
2. COc1cc2nccc(Nc3ccc(NC(=O)c4ccc(C)cc4)c(O)c3)c2cc1OC.Cl

Completion:
21
4

Here are 4 compounds. What values of %Inh were reported for them?
1. Cc1cccc(-c2nc(Nc3ccc4[nH]ncc4c3)c3ccccc3n2)n1
2. Cn1ccc2ncnc(Oc3ccc(NC(=O)Nc4ccccc4)cc3)c21
3. CS(=O)(=O)c1ccc(-c2c(-c3ncn[nH]3)sc(N3CCOCC3)c2C#N)cc1
4. Clc1cc(Cl)cc(Nc2ccnc(Nc3cc(Cl)cc(Cl)c3)n2)c1

Completion:
1: 7; 2: 2; 3: 12; 4: 11

# batch size: 5; output %Inh per entry
1. O=S(=O)(c1ccc(-c2ccnc3[nH]ccc23)cc1)N1CCCC1
2. Cl.Oc1ccc(-c2nc(-c3ccccc3)[nH]c2-c2ccncc2)cc1
3. COc1cccc(-c2cc(-c3c[nH]nc3-c3ccccn3)ccn2)c1
4. Cc1cc(N2Cc3ccccc3C2)nc(Nc2ccc(S(=O)(=O)N3CCOCC3)cc2)n1.Cl
5. Cc1ccc(NC(=O)Nc2cc(C(C)(C)C)nn2-c2ccccc2)cc1

Completion:
1. 3
2. 0
3. 0
4. 0
5. 9

Report %Inh for each item below.
1. C[C@@H]1CCCCN1c1cc(-c2ccc3c(N)n[nH]c3c2)nc(N)n1
2. O=C(Nc1ccc2c(c1)OCO2)NC1CCN(c2ccnc(Nc3ccc(F)cc3)n2)C1 (stereo not drawn)

Completion:
[0, 1]

* * *

system: CHEK2; settings: concentration: 1 μM, replicates: in singlicate; n = 1
Rule: %Inh under 10% gives not met, otherwise met.

Previously resolved entries follow.
COc1cccc(-c2cc(-c3c[nH]nc3-c3ccccn3)ccn2)c1; met
COC(=O)c1c(-c2ccccc2)c2cc(C(=O)O)ccc2c(=O)n1Cc1ccccc1; met
COc1cccc(NC(=O)NC2CCN(c3ccnc(Nc4ccc(F)cc4)n3)C2)c1 (centres unmarked); met
O=C(O)COc1ncnc2cc(-c3ccc4[nH]ncc4c3)sc12; not met

Let's switch to this compound now.
Prompt: Could you please find out whether `O=C1NC(=O)C(N2CCc3ccccc32)=C1c1ccccc1Cl` has %Inh that meets 10% or exceeds it?
Completion: not met

* * *

Assignment: determine reported %Inh for the given molecules.
system: EPHA1; details: concentration: 1 μM, replicates: in singlicate; n = 1
Give bare numbers, in %.

Would you please look over these solved cases?
Cc1cccc(-c2nc(Nc3cccc(C(N)=O)c3)c3ccccc3n2)n1 [GW876019]; 57
Cn1ccc2ncnc(Oc3ccc(NC(=O)Nc4ccccc4)cc3)c21; 7
CCCc1ccc(S(=O)(=O)NC2CCN(c3ccnc(Nc4ccc(F)cc4)n3)C2)cc1 (centres unmarked) [GSK1379715]; 8
CC(C)(C)c1ccc(C(=O)Nc2cn3cc(-c4cccnc4)ccc3n2)cc1; 12
CCn1c(-c2ccccn2)nc2cnccc21 [SB-736398]; 21

Hi, could you look up %Inh for each item in my list?
1. COc1ccc(C2=C(Nc3cccc(C(=O)O)c3)C(=O)NC2=O)cc1 [SB-390765]
2. COc1ccccc1-c1ccc2c(NC(=O)C3CC3)n[nH]c2n1 [SB-711239]

Completion:
7
0

Batch request: %Inh per item, same order as input.
1. CC1=C(C(=O)Nc2cc3cn[nH]c3cc2F)C(c2ccc(C(F)(F)F)cc2)CC(=O)N1 (centres unmarked) [GSK429286]
2. O=C(Nc1ccccc1)Nc1cccc(Oc2ccc3nccn3n2)c1

Completion:
[22, 14]

* * *

tested on: NEK7; conditions: concentration: 1 μM, replicates: in singlicate; n = 1
RECORDED ENDPOINT: %Inh (%)
Give bare numbers, in %.

Some molecules with known %Inh results, for comparison:
Cc1cccc(-c2cc(Nc3ccncc3)c3ccccc3n2)n1; 0
Cc1cccc(-c2nc(C)cc(Nc3ccncc3)n2)n1; 0
O=C(Nc1n[nH]c2nc(-c3nccs3)c(Br)cc12)C1CCCC1; 5

Below are 2 molecules. Give each one its %Inh.
1. Clc1cc(Cl)cc(Nc2ccnc(Nc3cc(Cl)cc(Cl)c3)n2)c1
2. COc1cccc(NC(=O)NC2CCN(c3ccnc(Nc4ccc(F)cc4)n3)C2)c1 (stereo not shown)

Completion:
0
16

* * *

tested on: EPHA4; details: concentration: 1 μM, replicates: in singlicate; n = 1
RECORDED ENDPOINT: %Inh (%)
One number for each entry, in %.

Cl.Oc1ccc(-c2nc(-c3ccccc3)[nH]c2-c2ccncc2)cc1; 30

# return %Inh for each item in the list
1. O=C(Nc1ccccc1)Nc1cccc(Oc2ccc3nccn3n2)c1
2. COc1ccccc1CNC(=O)c1cc(C(=O)c2ccccc2C)c[nH]1

Completion:
1. 0
2. 5

Please give %Inh for each item listed below.
1. Cc1nnc(-c2ccc3occ(-c4ccc(S(C)=O)cc4)c3c2)[nH]1 (centres unmarked)
2. COc1cccc(-c2cc(-c3c[nH]nc3-c3ccccn3)ccn2)c1

Completion:
1: 24; 2: 2

* * *

system: PDGFRB; conditions: concentration: 1 μM, replicates: in singlicate; n = 1
Would you mind telling me the reported %Inh of each entry?
Answers are plain numbers, in %.

Record excerpt, results attached:
Clc1cc(Cl)cc(Nc2ccnc(Nc3cc(Cl)cc(Cl)c3)n2)c1 [GSK175726]; 21
O=C(Nc1n[nH]c2cc(-c3cccc(F)c3F)ccc12)C1CC1 [SB-733894]; 51
CN(C)CCN(C)C(=O)c1cc(-c2ccncc2)c(-c2ccc(Cl)c(O)c2)o1.Cl.Cl [SB-710397]; 22
Cc1cc(NCC(c2ccccc2)c2ccccc2)nc(NCc2ccc(C(F)(F)F)cc2)n1 [GW497681]; 21
Fc1cc(Cl)ccc1Nc1ccnc2cc(-c3ccc(CN4CCCCC4)o3)ccc12 [GW560116]; 94.8

// batch mode: one %Inh value per listed entry
1. O=C(Nc1ccc2c(c1)OCO2)NC1CCN(c2ccnc(Nc3ccc(F)cc3)n2)C1 (stereo not shown) [GSK1379724]
2. O=C(O)COc1ncnc2cc(-c3ccc4[nH]ncc4c3)sc12
3. Cc1c(O)cccc1Nc1ccnc2ccc(C(F)(F)F)cc12.Cl [GW466413]
4. Cn1ccc2ncnc(Oc3cccc(C(=O)Nc4ccccc4)c3)c21
5. Cc1nnc(-c2ccc3occ(-c4ccc(S(C)=O)cc4)c3c2)[nH]1 (stereo not shown)

Completion:
[31, 31, 5, 39, 0]

For each of the compounds below, state %Inh.
1. Cl.Oc1ccc(-c2nc(-c3ccccc3)[nH]c2-c2ccncc2)cc1 [SB-428218]
2. CCn1c(-c2ccccn2)nc2cnccc21 [SB-736398]

Completion:
1. 13
2. 0

* * *

tested on: MLCK; construct: gene MYLK3; conditions: concentration: 1 μM, replicates: in singlicate; n = 1
RECORDED ENDPOINT: %Inh (%)
Numbers only, in %.

Solved entries (count: 8):
O=C(Nc1ccc2c(c1)OCO2)NC1CCN(c2ccnc(Nc3ccc(F)cc3)n2)C1 (stereo not drawn) [GSK1379724]; 0
Cc1c(O)cccc1Nc1ccnc2ccc(C(F)(F)F)cc12.Cl [GW466413]; 1
COc1ccc(Nc2nccc(NCCNC(=O)Nc3ccccc3F)n2)cc1 [GSK1379901]; 0
Cc1csc(-c2nc(Nc3ccncc3)c3ccccc3n2)n1 [GW869640]; 2
CS(=O)(=O)c1ccc(-c2c(-c3ncn[nH]3)sc(N3CCOCC3)c2C#N)cc1; 13
Cn1ccc2ncnc(Oc3cccc(C(=O)Nc4ccccc4)c3)c21; 13
O=S(=O)(c1ccc(-c2ccnc3[nH]ccc23)cc1)N1CCCC1 [GSK846226]; 4
Cc1cc(NCC(c2ccccc2)c2ccccc2)nc(NCc2ccc(C(F)(F)F)cc2)n1 [GW497681]; 3

Shift focus to the following entry.
Prompt: Quick one: %Inh of C[C@@H]1CCCCN1c1cc(-c2ccc3c(N)n[nH]c3c2)nc(N)n1 [GSK2258759] ?
Completion: 0
